# reported inhibition at 10 µM; entries follow
- System under test: IGF-1R (Homo sapiens)
- Construct: purchased Upstate Co. 14-465
- Sequence (P08069 959-1367 limits assumed): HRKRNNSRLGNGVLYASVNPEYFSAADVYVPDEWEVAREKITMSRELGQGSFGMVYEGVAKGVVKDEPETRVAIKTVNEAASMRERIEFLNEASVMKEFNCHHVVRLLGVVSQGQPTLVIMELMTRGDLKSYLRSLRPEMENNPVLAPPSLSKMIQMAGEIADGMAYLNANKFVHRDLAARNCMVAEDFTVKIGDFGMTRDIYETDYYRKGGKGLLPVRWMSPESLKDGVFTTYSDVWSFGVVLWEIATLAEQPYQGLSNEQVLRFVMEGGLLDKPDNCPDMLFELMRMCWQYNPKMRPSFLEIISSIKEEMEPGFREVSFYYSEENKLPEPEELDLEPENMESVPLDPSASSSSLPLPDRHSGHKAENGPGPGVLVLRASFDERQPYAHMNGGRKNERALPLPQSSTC
- Protocol details: IGF-1R inhibitory activity (kinase reaction, time-resolved fluoroimmunoassay)
- Format: biochemical
- Measurement parameters: IGF-1R active recombinant enzyme, test compound 10 μmol/L
Output spec: scalar in %, unitless text.

Here are 5 molecules together with their reported answers.
O=C(CCc1cccs1)Nc1ccccc1/C=C/c1n[nH]c2ccccc12 :: 59.1
Cc1ccsc1C(=O)Nc1cc(C(=O)N2CCC(N(C)C)C2)ccc1/C=C/c1n[nH]c2ccccc12 (stereo not drawn) :: 97.2
COc1ccccc1/C=C/c1n[nH]c2ccccc12 :: 86.6
O=C(c1ccc(/C=C/c2n[nH]c3ccccc23)c(N2C(=O)c3ccccc3C2=O)c1)N1CCOCC1 :: 99.6
O=C(Nc1nncs1)c1ccccc1/C=C/c1n[nH]c2ccccc12 :: 93.4

Please look at this molecule and report its inhibition at 10 µM: CN[C@@H]1CN(CCCOc2ccc(/C=C/c3n[nH]c4ccccc34)c(NC(=O)c3sccc3C)c2OC)C[C@H]1OC (relative stereo)
109

Return inhibition at 10 µM for the following molecule: "O=C(Nc1ccccc1/C=C/c1n[nH]c2ccccc12)c1ccc(Br)s1"
99.2
